Data origin: patent US6596863B2

Provide the recorded pIC50 for the entries that follow.
# System under test: human MMP-9 (gelatinase B) (Homo sapiens)
# Construct: endogenous in cells; host or cells: HT1080 human fibrosarcoma cells (ATCC CCL-121), PMA-stimulated; enzyme purified from the culture supernatant
# Sequence (P14780 107-707 limits assumed): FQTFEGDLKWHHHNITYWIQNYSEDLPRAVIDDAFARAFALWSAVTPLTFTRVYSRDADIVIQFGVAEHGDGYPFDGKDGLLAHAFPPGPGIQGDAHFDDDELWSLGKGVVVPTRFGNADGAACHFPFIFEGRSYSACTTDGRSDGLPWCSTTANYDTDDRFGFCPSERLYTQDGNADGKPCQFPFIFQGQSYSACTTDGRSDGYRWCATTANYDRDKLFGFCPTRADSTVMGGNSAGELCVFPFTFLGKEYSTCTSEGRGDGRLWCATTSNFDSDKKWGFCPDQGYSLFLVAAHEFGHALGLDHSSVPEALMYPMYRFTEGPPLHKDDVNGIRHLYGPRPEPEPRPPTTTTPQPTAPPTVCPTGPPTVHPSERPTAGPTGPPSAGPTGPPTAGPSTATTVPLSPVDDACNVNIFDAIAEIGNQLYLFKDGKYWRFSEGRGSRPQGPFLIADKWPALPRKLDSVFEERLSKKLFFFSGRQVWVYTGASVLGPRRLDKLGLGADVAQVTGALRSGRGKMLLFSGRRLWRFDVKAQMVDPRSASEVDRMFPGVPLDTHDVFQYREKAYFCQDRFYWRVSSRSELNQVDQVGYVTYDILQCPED
# Method summary: Inhibition activity against human MMP-9 (gelatinase B), fluorescent peptide substrate
# Format: biochemical
# Assay setup: compounds of the formula (I); average of 1st and 2nd (or single measurement); read-out: MMP-9 inhibition activities IC50, Average
Numbers only, as −log10 of the molar value.

CCOC(=O)c1ccc(NC(=C[N+](=O)[O-])NN)cc1 [compound 74] : 4.31
NNC(=C[N+](=O)[O-])Nc1ccc(F)cc1 [compound 53] : 4.59
CNC(=C[N+](=O)[O-])NN=Cc1ccccc1 [compound 18] : 4.65
CNC(=C[N+](=O)[O-])NNc1cc(C(F)(F)F)cc(OCCCc2cccnc2)n1 [compound 119] : 4.59
CC(=C(NNc1cc(C(F)(F)F)cc(Cl)n1)NS(C)(=O)=O)[N+](=O)[O-] [compound 165] : 5.49

Would you mind listing pIC50 for each of the following compounds?
1. CNC(=C[N+](=O)[O-])NN=C(C)c1ccncc1 [compound 38]
2. O=[N+]([O-])C=C(NCC1CCCO1)NNc1cc(C(F)(F)F)cc(Cl)n1 (stereo not drawn) [compound 169]
3. CNNC(=C[N+](=O)[O-])NC [compound 82]
4. CC(C)NC(=C[N+](=O)[O-])NN [compound 88]
5. CNC(=C[N+](=O)[O-])NNc1cc(C(F)(F)F)cc(SC)n1 [compound 125]

1: 4.79; 2: 5.11; 3: 4.44; 4: 4.32; 5: 4.89
